All figures here come from patent US20090270459A1.

# Test system: std:ddy strain male mice
# Run Description: Toxicity to mouse, administration into the stomach
# Assay type: in vivo
# Condition Label: 100 mg/kg
Measured Metric: Cumulative mortality After 7 days

INSERT INTO measurements (compound, measurement) VALUES
  ('FC(F)(F)Sc1cn(-c2c(Cl)cc(C(F)(F)F)cc2Cl)c2ccccc12', '0/5'),
  ('N#Cc1nn(-c2c(Cl)cc(C(F)(F)F)cc2Cl)c(N)c1[S+]([O-])C(F)(F)F (stereo not shown) [Fipronil, reference compound]', '5/5'),
  ('Cc1c(SC(F)(Cl)Cl)c2ccccc2n1-c1ncc(C(F)(F)F)cc1Cl', '0/5'),
  ('FC(Cl)(Cl)Sc1cn(-c2c(Cl)cc(C(F)(F)F)cc2Cl)c2ccccc12', '0/5');

---

# Tested on: std:ddy strain male mice
# Run Description: Toxicity to mouse, administration into the stomach
# Type: in vivo
# Condition Label: 100 mg/kg
Measured Metric: Cumulative mortality After 14 days

INSERT INTO measurements (molecule, measurement) VALUES
  ('Cc1c(SC(F)(Cl)Cl)c2ccccc2n1-c1ncc(C(F)(F)F)cc1Cl [Compound 14]', '0/5'),
  ('FC(F)(F)Sc1cn(-c2c(Cl)cc(C(F)(F)F)cc2Cl)c2ccccc12 [Compound 25]', '0/5'),
  ('N#Cc1nn(-c2c(Cl)cc(C(F)(F)F)cc2Cl)c(N)c1[S+]([O-])C(F)(F)F (stereo not shown) [Fipronil, reference compound]', '5/5'),
  ('FC(Cl)(Cl)Sc1cn(-c2c(Cl)cc(C(F)(F)F)cc2Cl)c2ccccc12 [Compound 17]', '0/5');

---

// After 2 days (mortality) lookup, one value per entry
# System: adult cat fleas
# Run Description: Effect on cat flea (1): glass tube residue contact test, knock-down and mortality
# Type: in vivo, cat flea (Ctenocephalides felis)
# Condition Label: 0.01 mg/tube
Measured Metric: After 2 days (mortality) (%)

INSERT INTO measurements (compound, measurement) VALUES
  ('N#Cc1nn(-c2c(Cl)cc(C(F)(F)F)cc2Cl)c(N)c1[S+]([O-])C(F)(F)F (stereo not shown) [Fipronil, reference compound]', 90),
  ('Fc1ccc2c(c1)c(SC(F)(Cl)Cl)cn2-c1ncc(C(F)(F)F)cc1Cl', 50),
  ('FC(F)(F)Sc1cn(-c2c(Cl)cc(C(F)(F)F)cc2Cl)c2ccccc12', 100),
  ('FC(Cl)(Cl)Sc1cn(-c2c(Cl)cc(C(F)(F)F)cc2Cl)c2ccccc12', 100);

---

# System: adult cat fleas
# Run Description: Effect on cat flea (1): glass tube residue contact test, knock-down and mortality
# Type: in vivo, cat flea (Ctenocephalides felis)
# Condition Label: 0.001 mg/tube
Measured Metric: After 2 days (mortality)

INSERT INTO results (compound, measurement) VALUES
  ('FC(Cl)(Cl)Sc1cn(-c2ncc(C(F)(F)F)cc2Cl)c2ccccc12 [Compound 1]', '40%'),
  ('N#Cc1nn(-c2c(Cl)cc(C(F)(F)F)cc2Cl)c(N)c1[S+]([O-])C(F)(F)F (stereo not shown) [Fipronil, reference compound]', '20%'),
  ('O=S(=O)(c1cn(-c2c(Cl)cc(C(F)(F)F)cc2Cl)c2ccccc12)C(F)(Cl)Cl [Compound 32]', '0%'),
  ('FC(Cl)(Cl)Sc1cn(-c2c(Cl)cc(C(F)(F)F)cc2Cl)c2ccccc12 [Compound 17]', '40%');
